target: EAAT1 (Homo sapiens, UniProt P43003); construct: expressed in transfected cells; host or cells: COS-7; assay: glutamate uptake mediated by EAAT1-expressing COS-7 cells; assay type: cell-based; conditions: bottom number of the cell
Sequence (P43003 whole entry, the tested form may be a part): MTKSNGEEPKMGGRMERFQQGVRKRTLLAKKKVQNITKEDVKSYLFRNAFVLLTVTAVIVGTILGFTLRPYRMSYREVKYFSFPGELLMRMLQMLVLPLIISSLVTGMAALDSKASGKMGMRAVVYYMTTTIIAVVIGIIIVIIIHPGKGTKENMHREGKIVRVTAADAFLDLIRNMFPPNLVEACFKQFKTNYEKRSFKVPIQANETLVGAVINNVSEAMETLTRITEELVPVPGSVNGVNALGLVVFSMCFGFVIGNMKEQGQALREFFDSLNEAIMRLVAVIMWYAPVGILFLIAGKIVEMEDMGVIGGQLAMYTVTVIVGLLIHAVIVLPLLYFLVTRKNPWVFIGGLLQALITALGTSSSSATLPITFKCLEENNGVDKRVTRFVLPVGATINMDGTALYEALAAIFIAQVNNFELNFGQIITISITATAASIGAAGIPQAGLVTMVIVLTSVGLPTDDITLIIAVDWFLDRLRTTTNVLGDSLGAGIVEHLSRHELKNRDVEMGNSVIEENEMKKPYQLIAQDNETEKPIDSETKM
Reported EAAT1 Efficacy values for the following compounds.
quantityName: EAAT1 Efficacy (%)

[[record]]
compound = "CN1CCN(C(c2ccncc2)c2nnnn2CCc2ccccc2)CC1 (centres unmarked)"
systemtested = "EAAT1 (Homo sapiens, UniProt P43003)"
unitspec = "%"
measuredresult = 186.0

[[record]]
compound = "CN1CCN(C(c2ccc(O)nc2)c2nnnn2CCc2ccccc2)CC1 (centres unmarked)"
systemtested = "EAAT1 (Homo sapiens, UniProt P43003)"
unitspec = "%"
measuredresult = 160.25

[[record]]
compound = "CN1CCN(C(C(=O)NCCc2ccc(F)cc2)c2cccnc2)CC1 (centres unmarked)"
systemtested = "EAAT1 (Homo sapiens, UniProt P43003)"
unitspec = "%"
measuredresult = 189

[[record]]
compound = "COc1ccc(C(c2nnnn2CCc2ccccc2)N2CCN(C3CCCCC3)CC2)cc1OC (centres unmarked)"
systemtested = "EAAT1 (Homo sapiens, UniProt P43003)"
unitspec = "%"
measuredresult = 150.00


###

Below, each entry is listed with its recorded pEC50.
biological target: UniProtKB P43004; test: glutamate uptake mediated by EAAT2-expressing COS-7 cells
pEC50: −log10 of the molar value.
quantityName: pEC50

[[record]]
compound = "CN1CCN(C(c2ccncc2)c2nnnn2CCc2ccccc2)CC1 (centres unmarked)"
systemtested = "UniProtKB P43004"
quantityname = "pEC50"
measuredresult = 9.40

[[record]]
compound = "COc1ccc(C(c2nnnn2CCc2ccccc2)N2CCN(C3CCCCC3)CC2)cc1OC (centres unmarked)"
systemtested = "UniProtKB P43004"
quantityname = "pEC50"
measuredresult = 9.30

